Target: Proto-oncogene tyrosine-protein kinase receptor Ret (Homo sapiens) (UniProt P07949);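 further: reported figure is the mean of RET inhibition measurements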
Sequence (P07949 whole entry): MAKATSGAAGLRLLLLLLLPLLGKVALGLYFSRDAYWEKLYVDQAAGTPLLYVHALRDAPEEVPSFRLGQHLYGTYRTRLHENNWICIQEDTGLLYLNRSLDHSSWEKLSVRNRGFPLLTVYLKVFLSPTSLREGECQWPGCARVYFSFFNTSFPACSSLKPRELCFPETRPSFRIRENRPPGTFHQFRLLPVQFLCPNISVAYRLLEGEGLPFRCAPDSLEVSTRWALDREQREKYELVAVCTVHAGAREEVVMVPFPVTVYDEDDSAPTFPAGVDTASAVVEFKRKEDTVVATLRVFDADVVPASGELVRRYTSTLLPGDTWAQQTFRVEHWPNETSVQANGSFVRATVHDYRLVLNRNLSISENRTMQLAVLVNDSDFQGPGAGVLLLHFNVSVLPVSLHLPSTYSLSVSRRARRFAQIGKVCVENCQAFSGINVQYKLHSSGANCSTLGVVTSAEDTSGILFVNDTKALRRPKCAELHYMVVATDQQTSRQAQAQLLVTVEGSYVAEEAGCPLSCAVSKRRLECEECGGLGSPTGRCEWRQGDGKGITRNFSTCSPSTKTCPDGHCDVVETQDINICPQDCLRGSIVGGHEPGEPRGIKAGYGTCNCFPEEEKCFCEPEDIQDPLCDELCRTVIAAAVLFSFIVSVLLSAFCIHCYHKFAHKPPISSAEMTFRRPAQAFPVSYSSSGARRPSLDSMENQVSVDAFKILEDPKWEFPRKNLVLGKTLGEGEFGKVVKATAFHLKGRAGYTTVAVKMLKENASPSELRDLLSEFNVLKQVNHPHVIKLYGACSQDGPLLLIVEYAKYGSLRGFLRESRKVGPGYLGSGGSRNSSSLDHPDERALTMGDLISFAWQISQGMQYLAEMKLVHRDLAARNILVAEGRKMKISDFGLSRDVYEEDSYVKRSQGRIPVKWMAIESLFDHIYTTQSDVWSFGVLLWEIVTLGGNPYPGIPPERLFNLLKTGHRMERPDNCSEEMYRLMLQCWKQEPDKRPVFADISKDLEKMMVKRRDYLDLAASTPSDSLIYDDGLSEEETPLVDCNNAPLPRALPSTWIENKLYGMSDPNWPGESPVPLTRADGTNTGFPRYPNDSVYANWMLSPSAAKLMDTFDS
Conditions: at 0.1 µM
Observation Type: inhibition

>>> assay_value("COc1cccc(COc2cc(-n3cnc4ccccc43)sc2C(N)=O)c1")
"0.11%"
>>> assay_value("CCn1c(-c2nonc2N)nc2c(C#CC(C)(C)O)ncc(OCC3CCNCC3)c21")
"6.89%"
>>> assay_value("COc1cc(C=NNc2ncnc3c2cnn3Cc2ccccc2)ccc1O")
"7.87%"
>>> assay_value("CCn1c(-c2nonc2N)nc2c(C#CC(C)(C)O)nc(O[C@@H](CN)c3ccccc3)cc21")
"41.7%"

###

Biological target: G protein-coupled receptor kinase 6 (Homo sapiens) (UniProt P43250);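 further: mean percent inhibition of GRK6, GSK PKIS screen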
Sequence (P43250 whole entry, looked up): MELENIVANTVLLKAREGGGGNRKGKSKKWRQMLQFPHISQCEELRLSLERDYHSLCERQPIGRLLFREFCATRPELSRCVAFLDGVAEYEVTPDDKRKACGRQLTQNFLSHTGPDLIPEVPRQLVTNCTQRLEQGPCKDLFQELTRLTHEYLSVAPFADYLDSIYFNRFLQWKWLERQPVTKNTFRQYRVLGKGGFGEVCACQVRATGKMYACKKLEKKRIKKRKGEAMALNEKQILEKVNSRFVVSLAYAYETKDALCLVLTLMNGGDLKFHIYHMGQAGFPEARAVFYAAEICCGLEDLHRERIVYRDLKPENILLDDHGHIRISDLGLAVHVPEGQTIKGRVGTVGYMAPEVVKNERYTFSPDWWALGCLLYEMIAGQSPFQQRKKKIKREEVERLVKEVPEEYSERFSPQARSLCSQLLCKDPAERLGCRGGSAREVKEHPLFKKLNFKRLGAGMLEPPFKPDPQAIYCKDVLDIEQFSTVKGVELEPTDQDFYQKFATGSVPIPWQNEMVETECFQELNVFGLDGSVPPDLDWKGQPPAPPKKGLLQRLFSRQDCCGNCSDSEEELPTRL
Conditions: at 0.1 µM
Reported inhibition values for the following compounds.
Observation Type: inhibition (%)

>>> assay_value("COc1cccc(COc2cc(-n3cnc4ccccc43)sc2C(N)=O)c1")
0.1
>>> assay_value("COc1cc(C=NNc2ncnc3c2cnn3Cc2ccccc2)ccc1O")
-3.93
>>> assay_value("COc1cc2c(cc1Nc1nc(Nc3ccsc3C(N)=O)c3cc[nH]c3n1)N(C(=O)CN(C)C)CCC2")
27.5
>>> assay_value("NC(=O)c1sc(-n2cnc3cc(C(F)(F)F)ccc32)cc1OCc1ccccc1Br")
3.71
>>> assay_value("CCn1c(-c2nonc2N)nc2c(C#CC(C)(C)O)ncc(OC[C@@H]3CCCN3)c21")
-2.91
>>> assay_value("NS(=O)(=O)c1ccc(-c2ccc3c(NC(=O)C4CC4)n[nH]c3c2)cc1")
0.33
>>> assay_value("Nc1nonc1-c1nc2cnccc2n1C1CCCCC1")
-0.4
>>> assay_value("Fc1ccc(-c2ncn(C3CCNCC3)c2-c2ccnc(Oc3ccccc3)n2)cc1")
-2.07

###

Reported inhibition values for the following compounds.
Target: Tyrosine-protein kinase HCK (Homo sapiens) (UniProt P08631);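 further: values are averaged percent inhibition of HCK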
Sequence (P08631 2-526 limits assumed): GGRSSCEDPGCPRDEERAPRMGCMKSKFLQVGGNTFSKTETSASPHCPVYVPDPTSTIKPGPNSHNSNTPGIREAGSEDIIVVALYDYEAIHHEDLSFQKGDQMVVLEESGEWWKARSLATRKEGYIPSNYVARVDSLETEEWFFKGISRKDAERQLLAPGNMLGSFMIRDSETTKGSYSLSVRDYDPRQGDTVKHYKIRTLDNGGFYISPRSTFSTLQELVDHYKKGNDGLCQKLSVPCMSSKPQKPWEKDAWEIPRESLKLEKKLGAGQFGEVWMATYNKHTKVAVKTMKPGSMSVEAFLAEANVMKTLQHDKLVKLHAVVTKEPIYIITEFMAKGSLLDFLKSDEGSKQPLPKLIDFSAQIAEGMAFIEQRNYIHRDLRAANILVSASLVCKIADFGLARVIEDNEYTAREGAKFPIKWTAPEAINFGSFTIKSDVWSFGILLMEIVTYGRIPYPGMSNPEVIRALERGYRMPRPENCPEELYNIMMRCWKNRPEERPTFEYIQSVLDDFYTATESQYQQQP
Conditions: at 1 µM
Observation Type: inhibition (%)

>>> assay_value("COc1cccc(-n2ncc3c(N/N=C/c4ccncc4)ncnc32)c1")
59.2
>>> assay_value("NS(=O)(=O)c1ccc(N/C=C2\\C(=O)Nc3ccc4ncsc4c32)cc1")
28.9
>>> assay_value("COc1cc(C=NNc2ncnc3c2cnn3Cc2ccccc2)ccc1O")
33.7
>>> assay_value("Cc1cc(-c2ccco2)cc(C)c1/C=C/c1cncc(-c2nn[nH]n2)c1")
3.34
>>> assay_value("Nc1nonc1-c1nc2cnccc2n1C1CCCCC1")
0.66
>>> assay_value("COc1cccc(COc2cc(-n3cnc4ccccc43)sc2C(N)=O)c1")
-0.98
>>> assay_value("NC(=O)c1sc(-n2cnc3cc(C(F)(F)F)ccc32)cc1OCc1ccccc1Br")
0.29
>>> assay_value("Fc1ccc(-c2ncn(C3CCNCC3)c2-c2ccnc(Oc3ccccc3)n2)cc1")
1.98
>>> assay_value("COc1cc2c(cc1Nc1nc(Nc3ccsc3C(N)=O)c3cc[nH]c3n1)N(C(=O)CN(C)C)CCC2")
16.6
>>> assay_value("CCn1c(-c2nonc2N)nc2c(C#CC(C)(C)O)nc(O[C@@H](CN)c3ccccc3)cc21")
14.1

###

Molecular target: Ephrin type-B receptor 3 (Homo sapiens) (UniProt P54753);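 further: reported value is the mean percent inhibition of EPHB3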
Sequence (P54753 whole entry): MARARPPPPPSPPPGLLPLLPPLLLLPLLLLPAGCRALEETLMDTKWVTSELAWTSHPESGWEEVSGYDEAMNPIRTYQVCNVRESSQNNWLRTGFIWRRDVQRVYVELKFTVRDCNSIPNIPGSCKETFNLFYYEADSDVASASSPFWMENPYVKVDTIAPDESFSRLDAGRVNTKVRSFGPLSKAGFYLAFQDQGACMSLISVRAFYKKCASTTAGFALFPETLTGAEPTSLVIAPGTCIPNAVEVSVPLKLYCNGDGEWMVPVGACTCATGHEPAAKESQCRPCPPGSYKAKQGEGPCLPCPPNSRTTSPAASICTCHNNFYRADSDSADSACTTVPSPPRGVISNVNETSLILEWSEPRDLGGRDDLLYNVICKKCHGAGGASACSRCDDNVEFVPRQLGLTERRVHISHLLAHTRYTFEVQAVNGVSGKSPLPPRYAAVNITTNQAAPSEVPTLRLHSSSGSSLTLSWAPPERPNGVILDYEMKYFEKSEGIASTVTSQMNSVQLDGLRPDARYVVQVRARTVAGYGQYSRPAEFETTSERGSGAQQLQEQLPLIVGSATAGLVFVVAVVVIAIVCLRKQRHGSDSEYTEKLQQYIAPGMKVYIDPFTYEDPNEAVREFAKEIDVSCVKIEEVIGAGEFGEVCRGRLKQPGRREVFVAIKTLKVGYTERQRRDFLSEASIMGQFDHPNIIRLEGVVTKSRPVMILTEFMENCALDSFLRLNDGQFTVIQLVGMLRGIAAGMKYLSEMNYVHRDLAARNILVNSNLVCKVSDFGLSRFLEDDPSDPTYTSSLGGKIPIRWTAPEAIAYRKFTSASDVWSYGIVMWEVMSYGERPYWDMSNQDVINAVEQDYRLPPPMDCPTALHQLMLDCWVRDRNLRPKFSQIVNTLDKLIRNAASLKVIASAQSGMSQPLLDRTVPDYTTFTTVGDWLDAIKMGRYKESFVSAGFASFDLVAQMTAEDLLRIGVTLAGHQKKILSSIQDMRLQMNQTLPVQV
Conditions: at 0.1 µM
Reported inhibition values for the following compounds.
Observation Type: inhibition (%)

>>> assay_value("Cc1cc(-c2ccco2)cc(C)c1/C=C/c1cncc(-c2nn[nH]n2)c1")
0.39
>>> assay_value("CCn1c(-c2nonc2N)nc2c(C#CC(C)(C)O)ncc(OCC3CCNCC3)c21")
-0.37
>>> assay_value("Nc1nonc1-c1nc2cnccc2n1C1CCCCC1")
-1.43
>>> assay_value("CCn1c(-c2nonc2N)nc2c(C#CC(C)(C)O)ncc(OC[C@@H]3CCCN3)c21")
-0.27
>>> assay_value("COc1cccc(COc2cc(-n3cnc4ccccc43)sc2C(N)=O)c1")
0.5
